Taken from ChEMBL document CHEMBL2007661.

Record form. Attribute: inhibition. Fill in for each entry.
# Test system: Tyrosine-protein kinase Mer (Homo sapiens)
# Sequence (whole entry): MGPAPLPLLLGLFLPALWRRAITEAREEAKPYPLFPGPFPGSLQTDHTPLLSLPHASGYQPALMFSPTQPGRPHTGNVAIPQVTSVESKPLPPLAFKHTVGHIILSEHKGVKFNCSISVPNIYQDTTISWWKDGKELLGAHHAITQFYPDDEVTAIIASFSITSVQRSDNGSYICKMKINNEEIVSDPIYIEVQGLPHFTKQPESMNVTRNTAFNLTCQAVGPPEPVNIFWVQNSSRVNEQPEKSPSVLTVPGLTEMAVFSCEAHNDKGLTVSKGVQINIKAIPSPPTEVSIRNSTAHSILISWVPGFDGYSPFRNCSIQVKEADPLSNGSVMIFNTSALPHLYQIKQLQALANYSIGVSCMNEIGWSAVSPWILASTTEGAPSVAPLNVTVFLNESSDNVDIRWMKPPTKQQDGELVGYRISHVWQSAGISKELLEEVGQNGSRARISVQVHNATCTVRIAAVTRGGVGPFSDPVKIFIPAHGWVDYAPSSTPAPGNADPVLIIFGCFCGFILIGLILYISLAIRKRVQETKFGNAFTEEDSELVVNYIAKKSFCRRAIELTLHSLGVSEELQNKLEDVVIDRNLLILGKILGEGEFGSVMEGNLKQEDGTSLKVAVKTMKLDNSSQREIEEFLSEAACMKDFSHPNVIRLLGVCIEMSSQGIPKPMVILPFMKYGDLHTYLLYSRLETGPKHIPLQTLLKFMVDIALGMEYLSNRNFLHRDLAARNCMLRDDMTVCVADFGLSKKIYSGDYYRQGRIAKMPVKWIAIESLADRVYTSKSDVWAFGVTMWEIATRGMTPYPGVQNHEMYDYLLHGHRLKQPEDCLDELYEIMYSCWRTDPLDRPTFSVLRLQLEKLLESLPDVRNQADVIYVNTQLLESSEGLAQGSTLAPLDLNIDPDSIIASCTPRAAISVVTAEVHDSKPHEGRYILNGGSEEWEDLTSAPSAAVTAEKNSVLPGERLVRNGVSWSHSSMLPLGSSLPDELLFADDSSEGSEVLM
# Measurement parameters: at 10 µM
Numbers only, in %.

Hello, I would appreciate it if you could give inhibition for each entry below.
1. c1cc(-c2cnn3nc(N4CCOCC4)ccc23)nc(NC2CC2)n1
2. CS(=O)(=O)CCNCc1ccoc1-c1ccc2ncnc(Nc3ccc(OCc4ccccc4)cc3)c2c1
3. COc1cccc(-n2ncc3c(N/N=C/c4ccc(S(C)(=O)=O)cc4)ncnc32)c1

[-4, 88, 5]

Hello, I would appreciate it if you could give inhibition for each entry below.
1. Cc1ccc(NC(=O)c2ccoc2)cc1-c1ccc(C(=O)NCC2CC2)cc1
2. COc1ccc(-c2cc3c(N)ncnc3o2)cc1
3. O=S(=O)(CCNCc1ccc(-c2ccc3ncnc(Nc4ccc(OCc5cccc(F)c5)c(Cl)c4)c3c2)o1)c1ccccc1

-4
5
72

Hello, I would appreciate it if you could give inhibition for each entry below.
1. COc1cccc(-n2ncc3c(N/N=C/c4ccc(F)cc4)ncnc32)c1
2. COc1cc(C)c(N(C)C(=O)CN(C)C)cc1Nc1nc(Nc2cccc(F)c2C(N)=O)c2cc[nH]c2n1
3. COc1cc2c(cc1Nc1nc(Nc3cccc(F)c3C(N)=O)c3cc[nH]c3n1)N(C(=O)CN1CCN(C(C)C)CC1)CC2
4. COc1cccc(-n2cnc3c(N/N=C/c4ccncc4)ncnc32)c1
5. NS(=O)(=O)c1ccc(N/N=C2\C(=O)Nc3ccc(C(=O)NCCCn4ccnc4)cc32)cc1
6. COc1ccc(-c2nn3ncccc3c2-c2ccnc(Nc3ccc(Cl)c(C(F)(F)F)c3)n2)cc1
7. CCc1ccc(Oc2nccc(-c3c(-c4ccc(F)cc4)ncn3C3CCNCC3)n2)cc1
8. NS(=O)(=O)c1ccc(Nc2cc(-c3ccc(O)c(F)c3)n[nH]2)cc1

[-2, 50, -7, -4, -4, 13, -6, -1]

Hello, I would appreciate it if you could give inhibition for each entry below.
1. Cc1cccc2c1NC(=O)/C2=N\Nc1ccc(S(N)(=O)=O)cc1
2. COc1c(C(N)=O)cc(-c2ccc(Cl)cc2)cc1-c1ccc(S(N)(=O)=O)cc1

[4, -6]

Hello, I would appreciate it if you could give inhibition for each entry below.
1. CN(C)CCOc1ccc(-c2nc(-c3ccncc3)c(-c3ccc4c(c3)CC/C4=N\O)[nH]2)cc1
2. CCC(=O)Nc1ccc(C)c(-c2ccc(C(=O)NCC3CC3)cc2)c1
3. FC(F)(F)CNc1nccc(-c2cnn3ncccc23)n1
4. Nc1ccc(C#Cc2cncnc2Nc2ccc(OCc3cccc(F)c3)c(Cl)c2)cc1
5. COc1ccc(C2=C(N3CCc4ccccc43)C(=O)NC2=O)cc1

1: 3; 2: -1; 3: 1; 4: 58; 5: 3

Hello, I would appreciate it if you could give inhibition for each entry below.
1. CC1=C(C(=O)Nc2ccc3[nH]ncc3c2)C(c2ccc3ccccc3c2)CC(=O)N1 (stereo unspecified)
2. CNC(=O)c1cncc(/C=C/c2ccccc2Cl)c1

1: 47; 2: 5

Hello, I would appreciate it if you could give inhibition for each entry below.
1. OCc1ccc(-c2nc(-c3ccccn3)c(-c3ccc4c(c3)OCO4)[nH]2)cc1
2. CCS(=O)(=O)c1ccc(OC)c(Nc2ncc(-c3cccc(OC)c3)o2)c1
3. CNC(=O)c1cncc(/C=C/c2c(Cl)cccc2Cl)c1

1: -6; 2: -1; 3: 3
